Taken from PubChem BioAssay (NCATS).

Assay: Counterscreen qHTS for small molecule stabilizers of the endoplasmic reticulum resident proteome: GLuc-NoTag assay (AID 1508627);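 note: SH-SY5Y cells given compound then 100 nM thapsigargin to empty ER calcium; 0% = thapsigargin alone and -100% = DMSO vehicle control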
Conditions: Gaussia luciferase NoTag secretion counterscreen, luminescence, thapsigargin 100 nM for final 4 h; series mostly up to 76.4 µM
Inconclusive results are not listed. Activity calls are given as the source filed them. Calls come from the whole dose curve; as a rule, active = well fitted inhibition curve with a large enough effect; inconclusive = small, poorly fitted or top-dose-only effect; inactive = no such curve, though single readings can be large or run the other way.
endpoint: outcome

>  <compound>
CC(C)(Sc1ccc(CCN(CCCCC2CCCCC2)C(=O)NC2CCCCC2)cc1)C(=O)O

>  <result>
inactive

$$$$
>  <compound>
Oc1ccc(C2CNCCc3c2cc(O)c(O)c3Cl)cc1 (stereo not drawn)

>  <result>
inactive

$$$$
>  <compound>
OC(CCN1CCCCC1)(c1ccccc1)C1CC2C=CC1C2 (stereo not drawn)

>  <result>
inactive

$$$$

====

Experiment: qHTS drug screen for cell cycle checkpoint inhibitors in PARPi-resistant BRCA-mutant ovarian cancer cell lines. (AID 1963452)
Settings: PEO1/OlaR viability, CellTiter-Glo luminescence, 96 h; measured here: PEO4 Z-AUC; stronger effect = lower value
Consider the cut-off 0.8. If the recorded Z-AUC is strictly smaller, the label is 1; if not, the label is -1.

>  <molecule>
Oc1ccc(C2CNCCc3c2cc(O)c(O)c3Cl)cc1 (stereo unspecified)

>  <group label>
-1

$$$$
>  <molecule>
CCN(CC)CCCC(C)Nc1ccnc2cc(Cl)ccc12 (stereo unspecified)

>  <group label>
1

$$$$
>  <molecule>
Fc1ccc(Cl)cc1-c1nc(Nc2ccncc2)c2nccnc2n1

>  <group label>
-1

$$$$
>  <molecule>
COc1ccc(COc2cc3oc(=O)c4cc(C(C)O)ccc4c3cc2OC)cc1 (stereo unspecified)

>  <group label>
-1

$$$$
>  <molecule>
Cn1c(=O)c(F)c(Nc2ccc(I)cc2F)c2c(=O)n(C[C@@H](O)CO)cnc21

>  <group label>
1

$$$$
>  <molecule>
Cc1cc([C@@H](C)Nc2ccccc2C(=O)O)c2nc(N3CCOCC3)cc(=O)n2c1

>  <group label>
-1

$$$$
>  <molecule>
O=C(O)[C@@H](c1ccc(OCc2ccc3ccccc3n2)cc1)C1CCCC1

>  <group label>
1

$$$$
>  <molecule>
N#CC[C@H](C1CCCC1)n1cc(-c2ncnc3[nH]ccc23)cn1

>  <group label>
1

$$$$
>  <molecule>
O=C1CCC(N2C(=O)c3ccccc3C2=O)C(=O)N1 (stereo unspecified)

>  <group label>
1

$$$$
>  <molecule>
COc1nc(-c2ccc3c(c2)OCO3)n(-c2ccc(NC(=O)CSc3ccccc3)cc2)n1

>  <group label>
-1

$$$$
>  <molecule>
COc1ccc(CC2=NN3C([C@@H](CCc4ccccc4)[C@@H](C)O)=NC(C)C3C(=O)N2)cc1OC (stereo partly specified)

>  <group label>
1

$$$$
>  <molecule>
CCC(C)(C)C(=O)O[C@H]1C[C@@H](C)C=C2C=C[C@H](C)[C@H](CC[C@@H]3C[C@@H](O)CC(=O)O3)[C@H]21

>  <group label>
-1

$$$$
>  <molecule>
CNC[C@H](O)c1cccc(O)c1

>  <group label>
1

$$$$
>  <molecule>
C[C@]12CCC(=O)C=C1CC[C@@H]1[C@@H]2[C@@H](O)C[C@@]2(C)[C@H]1CC[C@]2(O)C(=O)CO

>  <group label>
1

$$$$
>  <molecule>
CC1(C)Cc2c(-c3ccccc3)c(-c3ccc(Cl)cc3)c(CC(=O)O)n2C1

>  <group label>
1

$$$$
